These data points were gathered from ChEMBL document CHEMBL4296182.

System: Escherichia coli
Assay: Antibacterial activity against Escherichia coli ATCC 25922 (CO-ADD:GN_001); MIC in CAMBH media using NBS plates, by Resazurin F(560/590)
Assay type: functional
Details: Concentration 20 uM, ASSAY_TEST Inhibition of Bacterial Growth, detection method Resazurin, Fluorescence (ex560/em590), MEDIA CAMHB, plate type 384well, CORNING #3640, time 18 hr
property_name: Inhibition (%)
Give a bare numeral; the unit % is implied.

| compound | target_or_test_system | measurement_unit | Inhibition |
| --- | --- | --- | --- |
| NC(=O)c1ccc(Oc2ccc(C(N)=O)cc2)cc1 | Escherichia coli | % | 0.31 |

Here's the next entry for you.
Q. Please supply the value of reported Inhibition for the item C=C1CC2(OC1=O)c1ccccc1CCc1ccccc12
A. 2.27
